target: ATP5B protein (UniProt P06576); assay: SPR, ATP5B amine-coupled to CM5 chip, peptide in flow at 50 µl/min; binding relative to SEQ ID NO: 12
Sequence (P06576 48-529 limits assumed): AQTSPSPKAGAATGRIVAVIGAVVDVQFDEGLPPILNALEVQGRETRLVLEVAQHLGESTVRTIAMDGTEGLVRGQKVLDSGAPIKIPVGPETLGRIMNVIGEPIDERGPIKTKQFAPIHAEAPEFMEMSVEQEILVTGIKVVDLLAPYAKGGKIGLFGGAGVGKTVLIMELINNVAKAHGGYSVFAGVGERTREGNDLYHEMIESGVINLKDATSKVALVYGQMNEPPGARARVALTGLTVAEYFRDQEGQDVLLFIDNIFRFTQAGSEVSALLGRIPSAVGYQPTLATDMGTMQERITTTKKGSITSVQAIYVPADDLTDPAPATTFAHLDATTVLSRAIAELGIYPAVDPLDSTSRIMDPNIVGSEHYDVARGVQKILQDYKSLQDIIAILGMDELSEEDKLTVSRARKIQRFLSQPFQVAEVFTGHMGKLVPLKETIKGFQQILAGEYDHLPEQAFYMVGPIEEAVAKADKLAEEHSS
outcome measure: Binding (%)

binder: VDRGAGSIREAGGAFGKREQAEAERYFR [Shortened substance (8-35) amino acid Ala substituted (30)]
readout unit: %
number: 94

binder: VDRGAGSIREAGGAFGKREQAEEERYAR [Shortened substance (8-35) amino acid Ala substituted (34)]
readout unit: %
number: 92.1

binder: VDAGAGSIREAGGAFGKREQAEEERYFR [Shortened substance (8-35) amino acid Ala substituted (10)]
readout unit: %
number: 104

binder: VDRGAGSAREAGGAFGKREQAEEERYFR [Shortened substance (8-35) amino acid Ala substituted (15)]
readout unit: %
number: 99.3

binder: VDRGAGSIREAGGAFGKAEQAEEERYFR [Shortened substance (8-35) amino acid Ala substituted (25)]
readout unit: %
number: 85.2
